target: METTL3/14 (Homo sapiens, UniProt Q86U44); construct: The full-length METTL3 and METTL14 plasmids were obtained from Professor Ping Yin; assay: HTMR (FP-based) METTL3/METTL14 methylation assay; details: from IC50 vs SAM concentration line, Cheng-Prusoff
Sequence (Q86U44 whole entry): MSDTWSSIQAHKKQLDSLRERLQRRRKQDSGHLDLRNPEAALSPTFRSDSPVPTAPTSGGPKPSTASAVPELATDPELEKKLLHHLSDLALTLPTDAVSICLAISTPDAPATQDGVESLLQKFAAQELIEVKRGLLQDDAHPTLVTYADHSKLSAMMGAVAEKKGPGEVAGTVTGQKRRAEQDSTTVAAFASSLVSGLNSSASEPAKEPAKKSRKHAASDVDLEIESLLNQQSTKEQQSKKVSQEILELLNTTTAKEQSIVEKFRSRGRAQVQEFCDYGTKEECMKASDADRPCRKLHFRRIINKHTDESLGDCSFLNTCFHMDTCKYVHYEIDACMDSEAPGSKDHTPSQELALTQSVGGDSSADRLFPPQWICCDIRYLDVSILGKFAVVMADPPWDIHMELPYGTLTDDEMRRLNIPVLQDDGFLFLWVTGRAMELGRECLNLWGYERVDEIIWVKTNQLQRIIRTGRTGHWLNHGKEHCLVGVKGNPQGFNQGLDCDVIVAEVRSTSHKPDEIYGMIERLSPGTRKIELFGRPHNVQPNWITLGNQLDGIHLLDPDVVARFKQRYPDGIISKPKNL
measured.attribute: Ki (nM)
Give bare numbers, in nM.

Please provide the recorded Ki for `Nc1ncnc2c1ncn2[C@@H]1O[C@H](CSCC[C@H](N)C(=O)O)[C@@H](O)[C@H]1O` , tested on METTL3/14 (Homo sapiens, UniProt Q86U44). 2060

----------
target: DNMT1(351–1600) (Homo sapiens); construct: The human DNMT1 (351–1600) gene with N terminal 6xHis tag and a TEV cleavage site; 6xHis (N); TEV cleavage site (N); test: HTMR (FP-based) DNMT1 methylation assay; conditions: different concentrations of SAM; read-out: IC50 against DNMT1
Sequence (P26358 351-1600): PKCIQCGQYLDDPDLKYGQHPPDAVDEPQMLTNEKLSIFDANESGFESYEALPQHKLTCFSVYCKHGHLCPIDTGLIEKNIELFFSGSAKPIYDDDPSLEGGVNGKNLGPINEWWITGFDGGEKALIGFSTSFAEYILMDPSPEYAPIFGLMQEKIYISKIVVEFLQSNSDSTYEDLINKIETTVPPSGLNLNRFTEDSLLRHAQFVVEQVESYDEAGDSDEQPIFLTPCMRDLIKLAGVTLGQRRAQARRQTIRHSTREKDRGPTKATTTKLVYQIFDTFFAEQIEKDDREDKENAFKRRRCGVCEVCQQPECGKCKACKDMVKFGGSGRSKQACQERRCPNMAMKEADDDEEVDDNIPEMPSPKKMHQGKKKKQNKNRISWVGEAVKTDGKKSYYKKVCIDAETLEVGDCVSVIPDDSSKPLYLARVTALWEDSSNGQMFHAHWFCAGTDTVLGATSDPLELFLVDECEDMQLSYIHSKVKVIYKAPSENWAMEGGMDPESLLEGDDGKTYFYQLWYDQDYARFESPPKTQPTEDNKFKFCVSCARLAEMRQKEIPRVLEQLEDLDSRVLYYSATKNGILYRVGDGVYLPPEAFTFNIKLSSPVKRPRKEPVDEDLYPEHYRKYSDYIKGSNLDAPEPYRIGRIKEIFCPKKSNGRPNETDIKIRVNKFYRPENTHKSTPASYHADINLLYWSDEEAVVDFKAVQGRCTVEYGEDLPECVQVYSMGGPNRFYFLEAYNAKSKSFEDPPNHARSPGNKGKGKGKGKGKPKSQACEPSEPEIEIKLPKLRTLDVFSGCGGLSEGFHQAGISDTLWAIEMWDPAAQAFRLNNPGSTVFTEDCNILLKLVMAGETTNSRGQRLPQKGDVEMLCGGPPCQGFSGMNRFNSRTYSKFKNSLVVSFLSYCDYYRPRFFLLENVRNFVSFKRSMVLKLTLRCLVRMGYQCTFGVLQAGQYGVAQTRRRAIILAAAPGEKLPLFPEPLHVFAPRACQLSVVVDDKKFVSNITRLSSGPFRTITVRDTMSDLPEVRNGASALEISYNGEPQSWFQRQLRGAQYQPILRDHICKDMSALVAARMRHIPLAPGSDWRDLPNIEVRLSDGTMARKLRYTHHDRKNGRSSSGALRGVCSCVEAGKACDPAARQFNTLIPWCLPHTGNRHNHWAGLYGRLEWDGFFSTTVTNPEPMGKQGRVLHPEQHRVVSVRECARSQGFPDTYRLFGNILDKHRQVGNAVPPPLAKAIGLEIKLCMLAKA
measured.attribute: IC50

Item under review: `O=c1oc2c(O)c(O)cc3c(=O)oc4c(O)c(O)cc1c4c23` . Reported IC50? ~67 µM
